Biological target: β-CA from Malassezia restricta (MreCA) (Malassezia restricta, UniProt A0A3G2S4B9)
Sequence (A0A3G2S4B9 1-238): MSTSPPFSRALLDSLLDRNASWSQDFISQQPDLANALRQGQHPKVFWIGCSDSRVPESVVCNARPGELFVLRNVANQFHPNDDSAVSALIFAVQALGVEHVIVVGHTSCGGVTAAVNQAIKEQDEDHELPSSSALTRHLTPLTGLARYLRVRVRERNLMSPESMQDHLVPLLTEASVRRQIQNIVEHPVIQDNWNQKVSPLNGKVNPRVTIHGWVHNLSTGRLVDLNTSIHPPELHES
Experiment: biochemical
Assay type: biochemical
Details: pH 8.3; read-out: KI MreCA
pKi: −log10 of the molar value.

- molecule: "N#C[SeH] [SeCN^−, selenocyanate]"
  relation operator: "="
  pKi: 3.19
- molecule: "[O]=[V]([OH])([OH])[O][V](=[O])([OH])[OH] [V2O7^2−, divanadate]"
  relation operator: "<"
  pKi: 1.30
- molecule: "S=C(S)S [CS3^2−, trithiocarbonate]"
  relation operator: "="
  pKi: 3.04
- molecule: "[N-]=[N+]=[N-] [N3^−, azide]"
  relation operator: "<"
  pKi: 1.30
- molecule: "O=S(O)O"
  relation operator: "<"
  pKi: 1.30
- molecule: "[O]=[Ru](=[O])(=[O])=[O] [RuO4^−, perruthenate]"
  relation operator: "="
  pKi: 2.13
- molecule: "O=[N+]([O-])O [NO3^−, nitrate]"
  relation operator: "="
  pKi: 2.05
- molecule: "[O]=[Re](=[O])(=[O])[OH] [ReO4^−, perrhenate]"
  relation operator: "<"
  pKi: 1.30
- molecule: "OB1OB2OB(O)OB(O1)O2 [B4O7^2−, tetraborate]"
  relation operator: "="
  pKi: 3.40
- molecule: "F [F^−, fluoride]"
  relation operator: "<"
  pKi: 1.30
- molecule: "O=C(O)O [CO3^2, carbonate]"
  relation operator: "<"
  pKi: 1.30
- molecule: "O=NO"
  relation operator: "<"
  pKi: 1.30
- molecule: "O=[Se](=O)(O)O"
  relation operator: "="
  pKi: 2.77

====

Molecular target: β-CA from Malassezia restricta (MreCA) (Malassezia restricta)
Test: biochemical
Type: biochemical
Settings: pH 8.3; read-out: KI MreCA
# Ki listing for each entry below
readout name: Ki (mM)

- compound: "[Br-].[K+] [Br^−, bromide]"
  relation operator: ">"
  observed: 50
- compound: "NS(N)(=O)=O [Inhibitor H2NSO2NH2, sulfamide]"
  relation operator: "="
  observed: 0.72
- compound: "F[P-](F)(F)(F)(F)F"
  relation operator: "="
  observed: 3.9
- compound: "I [I^−, iodide]"
  relation operator: "="
  observed: 8.6

====

Target: β-CA from Malassezia restricta (MreCA) (Malassezia restricta)
Experiment: biochemical
Type: biochemical
Conditions: pH 8.3; read-out: KI MreCA
readout name: Ki (mM)

- compound: "O=P(O)(O)OP(=O)(O)O [P2O7^2−, pyrophosphate]"
  relation operator: ">"
  observed: 50
- compound: "[O-][Cl+3]([O-])([O-])O [ClO4^−, perchlorate]"
  relation operator: "="
  observed: 9.2
- compound: "NS(=O)(=O)O"
  relation operator: "="
  observed: 7.7
- compound: "O=S(=O)(O)C(F)(F)F [CF3SO3^−, trifalate]"
  relation operator: "="
  observed: 4.5
- compound: "N#CO [CNO^−, cyanate]"
  relation operator: ">"
  observed: 50
- compound: "N#CS [SCN^−, thiocyanate]"
  relation operator: ">"
  observed: 50
- compound: "[O]=[Sn]([OH])[OH] [SnO3^2−, stannate]"
  relation operator: "="
  observed: 0.56
- compound: "Cl [Cl^−, chloride]"
  relation operator: ">"
  observed: 50
- compound: "O=S(=O)(O)OOS(=O)(=O)O [S2O8^2−, peroxydisulfate]"
  relation operator: ">"
  observed: 50
- compound: "O=[Te](=O)(O)O [TeO4^2−, tellurate]"
  relation operator: "="
  observed: 0.56
- compound: "O=S(=O)(O)NS(=O)(=O)O [NH(SO3)2^2−, iminodisulfite]"
  relation operator: ">"
  observed: 50
- compound: "O=C(O)O [HCO3^−, bicarbonate]"
  relation operator: "="
  observed: 0.86
